- tested_on: Amine oxidase [flavin-containing] B (Homo sapiens, UniProt P27338)
- Sequence (P27338 whole entry): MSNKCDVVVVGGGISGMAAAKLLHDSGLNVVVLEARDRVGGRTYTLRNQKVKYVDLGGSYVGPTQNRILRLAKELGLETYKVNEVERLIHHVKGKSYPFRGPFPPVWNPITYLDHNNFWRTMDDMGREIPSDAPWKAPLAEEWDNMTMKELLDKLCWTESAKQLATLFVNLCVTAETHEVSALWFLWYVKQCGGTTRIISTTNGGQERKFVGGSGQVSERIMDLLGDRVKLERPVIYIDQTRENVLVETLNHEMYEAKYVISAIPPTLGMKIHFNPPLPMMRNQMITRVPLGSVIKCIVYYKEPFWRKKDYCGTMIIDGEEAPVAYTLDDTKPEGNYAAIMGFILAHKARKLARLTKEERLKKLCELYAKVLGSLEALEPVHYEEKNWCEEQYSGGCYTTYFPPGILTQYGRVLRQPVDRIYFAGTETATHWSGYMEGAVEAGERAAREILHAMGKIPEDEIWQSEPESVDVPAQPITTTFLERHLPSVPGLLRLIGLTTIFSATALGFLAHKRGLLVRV
- condition_notes: 1 h, read-out: INH
- Description: Inhibition of MAOB (unknown origin) using kynuramine as substrate at 10 uM after 1 hr by fluorescence assay relative to control
experimental_readout: inhibition at 10 µM (%)

Example entries begin here.
compound	unit_spec	inhibition at 10 µM
OC(CNC1CC1)COc1ccc(-c2ccccc2)cc1 (configuration not stated)	%	100
C#CCN(C)CC(O)COc1ccc2cc(Br)ccc2c1 (configuration not stated)	%	100
C#CCN(C)CC(O)COc1ccc(-c2ccccc2)cc1 (configuration not stated)	%	100
OC(CNC1CC1)COc1ccc2cc(Br)ccc2c1 (configuration not stated)	%	100
C#CCN(C)CC(O)COc1ccc2ccccc2c1 (configuration not stated)	%	29

a = OC(CNC1CC1)COc1ccc2ccccc2c1 (configuration not stated)
b = C#CCNCC(O)COc1ccc2ccccc2c1 (configuration not stated)
# input Identify the entry with the larger inhibition at 10 µM. Options: a and b Return value: the label identifying the chosen record.
# output a

###

- tested_on: Amine oxidase [flavin-containing] B (Homo sapiens, UniProt P27338)
- condition_notes: 1 h, read-out: INH
- Description: Inhibition of MAOB (unknown origin) using kynuramine as substrate at 100 uM after 1 hr by fluorescence assay relative to control
experimental_readout: inhibition at 100 µM (%)

compound	inhibition at 100 µM [%]
C#CCN(C)CC(O)COc1ccccc1-c1ccccc1 (centres undefined)	30
C#CCN(C)CC(O)COc1cccc2ccccc12 (centres undefined)	32

a = OC(CNC1CC1)COc1ccccc1-c1ccccc1 (centres undefined)
b = C#CCNCC(O)COc1ccccc1-c1ccccc1 (centres undefined)
# input Identify the entry with the larger inhibition at 100 µM. Options: a and b Return value: the label identifying the chosen record.
# output a

###

- tested_on: Amine oxidase [flavin-containing] A (Homo sapiens)
- Sequence (P21397 whole entry): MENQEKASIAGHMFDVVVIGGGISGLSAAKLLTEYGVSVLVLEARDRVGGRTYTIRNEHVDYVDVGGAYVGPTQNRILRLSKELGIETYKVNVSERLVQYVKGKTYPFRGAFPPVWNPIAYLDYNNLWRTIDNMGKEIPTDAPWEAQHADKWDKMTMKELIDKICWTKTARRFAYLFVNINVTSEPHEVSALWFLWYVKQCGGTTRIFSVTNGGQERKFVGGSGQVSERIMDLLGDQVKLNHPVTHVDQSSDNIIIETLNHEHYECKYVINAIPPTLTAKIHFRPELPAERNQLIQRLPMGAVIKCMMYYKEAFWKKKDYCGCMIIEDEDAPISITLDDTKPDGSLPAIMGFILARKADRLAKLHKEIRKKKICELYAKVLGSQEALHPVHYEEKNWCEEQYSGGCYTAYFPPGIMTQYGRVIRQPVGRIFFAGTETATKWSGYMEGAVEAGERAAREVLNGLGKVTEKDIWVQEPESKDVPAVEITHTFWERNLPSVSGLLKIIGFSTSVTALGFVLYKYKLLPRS
- condition_notes: 1 h, read-out: INH
- Description: Inhibition of MAOA (unknown origin) using kynuramine as substrate at 10 uM after 1 hr by fluorescence assay relative to control
experimental_readout: inhibition at 10 µM (%)

compound	inhibition at 10 µM [%]
OC(CNC1CC1)COc1ccc2cc(Br)ccc2c1 (stereo unspecified)	100
OC(CNC1CC1)COc1ccc(-c2ccccc2)cc1 (stereo unspecified)	100
C#CCN(C)CCCOc1cccc(NC(=O)c2ccccc2)c1	73
C#CCNCCCOc1cccc(NC(=O)c2ccccc2)c1	62

I = C#CCNCC(O)COc1ccc2ccccc2c1 (stereo unspecified)
II = C#CCNCC(O)COc1ccccc1-c1ccccc1 (stereo unspecified)
# input Identify the entry with the larger inhibition at 10 µM. Options: I and II Return value: the label identifying the chosen record.
# output I
(I: 65%, II: 5%)

Data provenance is ChEMBL document CHEMBL2424529.
